- TARGET_OR_TEST_SYSTEM: endothelin A receptor (ETAR) (Homo sapiens, UniProt P25101)
- Construct: gene EDNRA
- Sequence (P25101 21-427): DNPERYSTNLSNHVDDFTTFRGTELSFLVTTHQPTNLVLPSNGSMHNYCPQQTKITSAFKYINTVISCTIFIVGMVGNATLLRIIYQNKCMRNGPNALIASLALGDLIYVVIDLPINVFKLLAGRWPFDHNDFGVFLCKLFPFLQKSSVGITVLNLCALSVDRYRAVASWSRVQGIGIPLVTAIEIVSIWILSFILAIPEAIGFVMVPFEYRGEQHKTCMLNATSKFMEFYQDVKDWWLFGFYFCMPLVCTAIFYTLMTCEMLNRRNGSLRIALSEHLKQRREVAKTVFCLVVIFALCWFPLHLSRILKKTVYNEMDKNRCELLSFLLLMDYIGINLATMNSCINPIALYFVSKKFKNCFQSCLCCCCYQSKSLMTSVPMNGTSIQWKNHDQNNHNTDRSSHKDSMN
- PROCEDURE_SUMMARY: Calcium mobilization (Fluo-4) antagonist assay in HEK293/ETAR cells evoked by […] ET-1; selective over ETB, A1, AT1 and PAR1 cell lines
- Type: cell-based

{"MOLECULE": "O=C(/C=C/c1ccc(O)c(O)c1/C=C/c1ccc(O)c(O)c1)O[C@H](Cc1ccc(O)c(O)c1)C(=O)O [Sal A, Salvianolic acid A]", "TARGET_OR_TEST_SYSTEM": "endothelin A receptor (ETAR) (Homo sapiens, UniProt P25101)", "IC50 [µM]": 5.7}

###

- TARGET_OR_TEST_SYSTEM: endothelin A receptor (ETAR) (Homo sapiens, UniProt P25101)
- Construct: gene EDNRA
- PROCEDURE_SUMMARY: Calcium mobilization antagonist assay in HEK293/ETAR cells evoked by […] ET-1 (cell line validation)
- Type: cell-based
Where a SMILES comes first, the peptide text is derived from it. [ ]: non-standard residue; d: D form.
EXPERIMENTAL_READOUT: IC50 (nM)

{"MOLECULE": "CC(C)C[C@@H]1NC(=O)[C@@H](C(C)C)NC(=O)[C@@H]2CCCN2C(=O)[C@@H](CC(=O)O)NC(=O)[C@@H](Cc2c[nH]c3ccccc23)NC1=O [BQ-123] (cyclo(L[dW][dD]P[dV]))", "EXPERIMENTAL_READOUT": "IC50", "UNITS_SYMBOL": "nM", "VALUE_OBSERVED": 0.1}

###

- TARGET_OR_TEST_SYSTEM: proteinase-activated receptor 1 (PAR1) (Homo sapiens, UniProt P25116)
- Construct: stably expressed in HEK293
- Sequence (P25116 whole entry): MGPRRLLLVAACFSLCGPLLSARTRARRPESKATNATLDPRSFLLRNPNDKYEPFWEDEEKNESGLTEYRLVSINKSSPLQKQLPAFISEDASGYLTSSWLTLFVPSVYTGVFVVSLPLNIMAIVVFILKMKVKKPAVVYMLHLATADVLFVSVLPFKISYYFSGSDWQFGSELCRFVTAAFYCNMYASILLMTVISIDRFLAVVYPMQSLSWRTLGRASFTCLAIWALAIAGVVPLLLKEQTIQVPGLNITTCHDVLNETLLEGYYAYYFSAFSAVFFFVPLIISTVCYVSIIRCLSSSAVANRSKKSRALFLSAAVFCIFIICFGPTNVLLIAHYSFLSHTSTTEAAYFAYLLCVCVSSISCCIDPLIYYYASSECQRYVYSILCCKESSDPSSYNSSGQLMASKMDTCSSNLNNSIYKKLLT
- PROCEDURE_SUMMARY: cell-based
pEC50: −log10 of the molar value.
EXPERIMENTAL_READOUT: pEC50

{"CPD_SMILES": "CC(C)C[C@H](NC(=O)[C@H](CC(C)C)NC(=O)[C@H](Cc1ccccc1)NC(=O)[C@@H](N)CO)C(=O)N[C@@H](CCCN=C(N)N)C(=O)N[C@@H](CC(N)=O)C(=O)O", "VALUE_OBSERVED": 6.05}
